meta.source: patent US12331048B2

- SYSTEM NAME: NLRP3 (Homo sapiens, UniProt Q96P20)
- Construct: endogenous in cells
- Sequence (Q96P20 whole entry): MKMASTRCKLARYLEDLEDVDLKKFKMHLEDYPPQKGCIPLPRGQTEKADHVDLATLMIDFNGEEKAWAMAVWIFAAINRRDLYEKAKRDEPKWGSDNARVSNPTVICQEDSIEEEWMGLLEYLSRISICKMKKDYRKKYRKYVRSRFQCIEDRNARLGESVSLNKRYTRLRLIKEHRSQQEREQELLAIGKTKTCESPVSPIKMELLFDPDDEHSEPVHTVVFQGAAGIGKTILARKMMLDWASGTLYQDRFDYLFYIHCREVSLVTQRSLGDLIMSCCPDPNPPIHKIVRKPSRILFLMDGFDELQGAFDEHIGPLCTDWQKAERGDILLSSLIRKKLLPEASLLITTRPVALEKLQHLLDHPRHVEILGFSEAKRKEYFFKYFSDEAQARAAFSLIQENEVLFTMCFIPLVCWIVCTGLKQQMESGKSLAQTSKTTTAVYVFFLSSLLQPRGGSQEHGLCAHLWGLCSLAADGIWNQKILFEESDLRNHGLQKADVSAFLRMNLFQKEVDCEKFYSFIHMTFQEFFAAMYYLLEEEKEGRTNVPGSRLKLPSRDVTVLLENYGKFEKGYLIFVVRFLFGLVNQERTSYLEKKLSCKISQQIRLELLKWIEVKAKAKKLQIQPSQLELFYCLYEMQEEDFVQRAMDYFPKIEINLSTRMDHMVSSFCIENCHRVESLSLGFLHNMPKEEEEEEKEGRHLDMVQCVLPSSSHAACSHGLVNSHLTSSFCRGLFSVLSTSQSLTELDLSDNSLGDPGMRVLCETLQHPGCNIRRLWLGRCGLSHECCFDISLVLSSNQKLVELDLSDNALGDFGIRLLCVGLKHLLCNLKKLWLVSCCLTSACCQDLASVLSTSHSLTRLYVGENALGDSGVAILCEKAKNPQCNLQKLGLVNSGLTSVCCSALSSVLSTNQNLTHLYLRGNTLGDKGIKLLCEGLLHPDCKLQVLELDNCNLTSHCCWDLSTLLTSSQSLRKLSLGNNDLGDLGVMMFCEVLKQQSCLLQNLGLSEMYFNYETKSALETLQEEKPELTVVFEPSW
- METHOD DESCRIPTION: Human whole blood (hWB) NLRP3 assay
- ASSAY CONDITIONS: LPS priming 1 μg/ml, ATP activation, read-out: hWB IC50 (raw activity data)
REPORTED METRIC: IC50 (nM)

Known IC50 results, listed for orientation:
Exercise: Give the reported IC50 for Cc1ccc(-c2nnc(N[C@@H]3CCOCC3(C)C)c3cnccc23)c(O)c1 (single isomer, unassigned) [Compound 13B] (system: NLRP3 (Homo sapiens, UniProt Q96P20)).
Solution: 9800

Exercise: Query C[C@H]1C[C@@H](Nc2nnc(-c3ccc(Cl)cc3O)c3ccncc23)CCO1 (single isomer, unassigned) [Compound 25B*] next
Solution: 850

Exercise: Another compound to check: Cc1cc(O)c(-c2nnc(N[C@H]3COC(C)(C)C3)c3cnccc23)c(Cl)c1 (single isomer, unassigned)
Solution: 900

Exercise: Thanks! And CC1(C)COC[C@H]1Nc1nnc(-c2ccc(Cl)cc2O)c2ccncc12 (single isomer, unassigned) ?
Solution: 1800

Exercise: Another compound: CN1CCO[C@H](CNc2nnc(-c3ccc(C(F)(F)F)cc3O)c3ccncc23)C1 (single isomer, unassigned)
Solution: 1260

Exercise: Subsequent entry: [2H]C([2H])([2H])OC(C)(C)CNc1nnc(-c2ccc(C(F)F)cc2O)c2ccncc12
Solution: 160

Exercise: Note, next up: CC1(C)COC[C@@H]1Nc1nnc(-c2ccc(Cl)cc2O)c2ccncc12 (single isomer, unassigned)
Solution: 1000

Exercise: Please give the result for CC1(C)C[C@H](Nc2nnc(-c3ccc(C(F)F)cc3O)c3ccncc23)CCO1 (single isomer, unassigned) [Compound 16B*] too.
Solution: 12000

1. OCC1(CNc2nnc(-c3ccc(Cl)cc3O)c3ccncc23)CC1 [Compound 8, reference compound]
2. CC1(C)COCC[C@@H]1Nc1nnc(-c2ccc(C(F)F)cc2O)c2ccncc12 (single isomer, unassigned)
3. Oc1cc(Cl)ccc1-c1nnc(N[C@H]2CCOC2)c2cnccc12 (single isomer, unassigned) [Compound 7*, reference compound]
Exercise: # rank by IC50, ascending (min first) State the ranking by listing the labels in the requested order.
Solution: 1, 2, 3

---

- SYSTEM NAME: NLRP3 (Homo sapiens)
- Construct: endogenous in cells
- METHOD DESCRIPTION: Human whole blood (hWB) NLRP3 assay
- ASSAY CONDITIONS: LPS priming 1 μg/ml, ATP activation, read-out: hWB IC50 (raw activity data)
REPORTED METRIC: IC50 (nM)

Exercise: Which IC50 value is on record for Cc1ccc(-c2nnc(N[C@H]3CCOCC3(C)C)c3cnccc23)c(O)c1 (single isomer, unassigned) ?
Solution: 220

1. CC1(C)C[C@@H](Nc2nnc(-c3ccc(C(F)F)cc3O)c3ccncc23)CO1 (single isomer, unassigned)
2. C[C@@H]1COCC[C@H]1Nc1nnc(-c2ccc(Cl)cc2O)c2ccncc12 (single isomer, unassigned) [Compound 18A*]
Exercise: Sorting by IC50 in descending order, would 1 or 2 appear first? Could you answer with the label of the item you picked?
Solution: 2
(2: 1100 nM, 1: 120 nM)

---

- METHOD DESCRIPTION: Brain levels (kp and kpu,u) after oral administration
- Assay type: in vivo, CDI mice
- ASSAY CONDITIONS: CDI, mouse, brain / plasma, po, 20 mg/kg, mice, 20 mpk PO; kp corrected with mouse plasma protein binding and mouse brain homogenate binding
REPORTED METRIC: Kpu,u (unbound brain-to-plasma ratio)

Answered examples (6):
Exercise: Please report the recorded Kpu,u (unbound brain-to-plasma ratio) for C[C@H]1COCC[C@H]1Nc1nnc(-c2ccc(Cl)cc2O)c2ccncc12 (single isomer, unassigned) .
Solution: 0.47

Exercise: Let us now turn to Cc1cc(O)c(-c2nnc(N[C@H]3COC(C)(C)C3)c3cnccc23)c(F)c1 (single isomer, unassigned)
Solution: 0.76

Exercise: Then OCC1(CNc2nnc(-c3ccc(Cl)cc3O)c3ccncc23)CC1 [Compound 8, reference compound] ?
Solution: 0.11

Exercise: Param item: Cc1ccc(-c2nnc(N[C@H]3COC(C)(C)C3)c3cnccc23)c(O)c1F (single isomer, unassigned)
Solution: 1.3

Exercise: Same read-out for C[C@@H]1COCC[C@H]1Nc1nnc(-c2ccc(Cl)cc2O)c2ccncc12 (single isomer, unassigned) [Compound 18A*] ?
Solution: 0.3

Exercise: And C[C@@H]1C[C@@H](Nc2nnc(-c3ccc(Cl)cc3O)c3ccncc23)CCO1 (single isomer, unassigned) [Compound 25D*] ?
Solution: 0.2

a. CC1(C)C[C@@H](Nc2nnc(-c3ccc(C(F)(F)F)cc3O)c3ccncc23)CCO1 (single isomer, unassigned)
b. Cc1ccc(-c2nnc(N[C@H]3CCC(C)(C)OC3)c3cnccc23)c(O)c1 (single isomer, unassigned)
c. CC1(C)C[C@H](Nc2nnc(-c3ccc(C(F)F)cc3O)c3ccncc23)CO1 (single isomer, unassigned) [Compound 23B]
d. CC1(C)COCC[C@@H]1Nc1nnc(-c2ccc(C(F)F)cc2O)c2ccncc12 (single isomer, unassigned)
e. Cc1ccc(-c2nnc(N[C@H]3CCOC(C)(C)C3)c3cnccc23)c(O)c1 (single isomer, unassigned)
Exercise: Arrange these 5 compounds in increasing order of Kpu,u (unbound brain-to-plasma ratio). # the answer lists labels in the order requested
Solution: c, e, b, a, d

I. CC1(C)C[C@H](Nc2nnc(-c3ccc(OC(F)F)cc3O)c3ccncc23)CO1 (single isomer, unassigned)
II. CC1(C)C[C@@H](Nc2nnc(-c3ccc(C(F)F)cc3O)c3ccncc23)CO1 (single isomer, unassigned)
Exercise: Form: Entry with minimum Kpu,u (unbound brain-to-plasma ratio) (choose one): I / II Choose, then provide that item's label.
Solution: II

---

- SYSTEM NAME: NLRP3 (Homo sapiens)
- Construct: endogenous in cells
- METHOD DESCRIPTION: Human whole blood (hWB) NLRP3 assay
- ASSAY CONDITIONS: LPS priming 1 μg/ml, ATP activation, read-out: hWB IC50 (raw activity data)
pIC50: −log10 of the molar value.
REPORTED METRIC: pIC50

Recorded results for 4 molecules are shown here.
Exercise: pIC50 lookup needed for Cc1cc(O)c(-c2nnc(N[C@@H]3COC(C)(C)C3)c3cnccc23)c(Cl)c1 (single isomer, unassigned) [Compound 26B*] , thanks.
Solution: 5.89

Exercise: Also Cc1cc(O)c(-c2nnc(N[C@@H]3COC(C)(C)C3)c3cnccc23)c(F)c1 (single isomer, unassigned) [Compound 21B] , if possible.
Solution: 5.64

Exercise: Would you kindly repeat that for Cc1ccc(-c2nnc(N[C@H]3CCC(C)(C)OC3)c3cnccc23)c(O)c1 (single isomer, unassigned) [Compound 10*] ?
Solution: 5.85

Exercise: Same read-out for CC1(C)OCC[C@@H]1Nc1nnc(-c2ccc(C(F)(F)F)cc2O)c2ccncc12 (single isomer, unassigned) [Compound 22B] ?
Solution: 5.23

P. CC1(C)C[C@H](Nc2nnc(-c3ccc(C(F)(F)F)cc3O)c3ccncc23)CCO1 (single isomer, unassigned) [Compound 11B*]
Q. CC1(C)COCC[C@@H]1Nc1nnc(-c2ccc(Cl)cc2O)c2ccncc12 (single isomer, unassigned) [Compound 3*]
Exercise: For the two items P and Q , which reports the higher pIC50 value? Kindly state the label of the option you pick.
Solution: Q

---

- METHOD DESCRIPTION: Brain levels (kp and kpu,u) after oral administration
- Type: in vivo, CDI mice
- ASSAY CONDITIONS: CDI, mouse, brain / plasma, po, 20 mg/kg, mice, 20 mpk PO, whole brain AUC over 24 h divided by plasma AUC; read-out: kp (code)
- Protocol: The in vivo total brain to plasma ratio was assessed in CDI mice after oral administration of the compound. Blood was collected at several timepoints up to 24 h, and transferred into plastic micro centrifuge tubes with EDTA-K2 as anticoagulant. […] Plasma and brain drug levels were quantified by LC/MS/MS on a AB Sciex Triple Quad 5500+ instrument, after separation on a HALO 160A ES-C18, 2.7 μm 2.1-50 mm column. […] Kpuu was calculated as (AUCtot,br×Fu,br)/(AUCtot,pl×Fu,pl). […]
Items are presented alongside their recorded Kp at 24 h.

Some molecules with known Kp at 24 h results, for comparison:
Exercise: // Kp at 24 h lookup, key: Cc1cc(C)c(-c2nnc(N[C@H]3COC(C)(C)C3)c3cnccc23)c(O)c1 (single isomer, unassigned)
Solution: ≤ 0.3

Exercise: Check Cc1ccc(-c2nnc(N[C@H]3COC(C)(C)C3)c3cnccc23)c(O)c1F (single isomer, unassigned) too.
Solution: > 0.3

Exercise: Proceed to CC1(C)C[C@@H](Nc2nnc(-c3ccc(C(F)(F)F)cc3O)c3ccncc23)CCO1 (single isomer, unassigned)
Solution: > 0.3

Exercise: Input CC1(C)OCC[C@H]1Nc1nnc(-c2ccc(C(F)(F)F)cc2O)c2ccncc12 (single isomer, unassigned)
Solution: > 0.3

Further cases:
Exercise: Given the entry CC1(C)COCC[C@@H]1Nc1nnc(-c2ccc(Cl)cc2O)c2ccncc12 (single isomer, unassigned) , report its measured Kp at 24 h.
Solution: > 0.3

Exercise: Same for Cc1ccc(-c2nnc(N[C@H]3CCC(C)(C)OC3)c3cnccc23)c(O)c1 (single isomer, unassigned)
Solution: > 0.3
